System: UCHL1 (Homo sapiens, UniProt P09936) | Read-out: IC50 | Origin: multiple publications
Sequence (P09936 whole entry): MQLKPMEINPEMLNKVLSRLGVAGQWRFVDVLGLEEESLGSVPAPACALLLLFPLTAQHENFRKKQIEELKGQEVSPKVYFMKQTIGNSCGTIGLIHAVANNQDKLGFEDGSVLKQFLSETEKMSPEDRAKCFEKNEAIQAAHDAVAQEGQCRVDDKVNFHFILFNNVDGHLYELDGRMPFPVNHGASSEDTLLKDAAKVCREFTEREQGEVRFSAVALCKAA

N#CN1CCC(C(=O)Nc2cnc(-c3ccccc3)s2)C1 (stereo not drawn): 10 to 30 µM
CCCn1cnc2cc(NC(=O)C3CCN(C#N)C3)ccc21 (stereo not drawn): 1 to 10 µM
CC(C)(C)c1cc(NC(=O)C2CCN(C#N)C2)no1 (stereo not drawn): 10 to 30 µM
CCN(CC)CCCNC(=O)c1ccc2c(Cl)c3c(nc2c1)CCCC3: > 200 µM
COC(=O)N1CCc2nc(NC(=O)[C@H]3CCN(C#N)C3)sc2C1: < 1 µM

Problem: Consider the compound CNC(=O)c1cc(-c2cnc(NC(=O)[C@H]3CCN(C#N)C3)s2)ccc1Cl and give its measured IC50.
Solution: < 1 µM

Problem: Further, for N#CN1CC(C(=O)Nc2nc3ccc(Br)cc3s2)C1 ?
Solution: 1.83 µM

Problem: Try this compound next: COc1cc(-n2cnc(NC(=O)[C@H]3CCN(C#N)C3)c2)ccc1F
Solution: < 1 µM

Problem: What about this compound? O=C(NCCCN1CCCC1)c1ccc2c(Cl)c3c(nc2c1)CCCC3
Solution: > 200 µM
